- study.system: oestrone sulphatase (Rattus norvegicus, UniProt P15589)
- Construct: from tissue; host or cells: rat liver
- Sequence (P15589 20-577): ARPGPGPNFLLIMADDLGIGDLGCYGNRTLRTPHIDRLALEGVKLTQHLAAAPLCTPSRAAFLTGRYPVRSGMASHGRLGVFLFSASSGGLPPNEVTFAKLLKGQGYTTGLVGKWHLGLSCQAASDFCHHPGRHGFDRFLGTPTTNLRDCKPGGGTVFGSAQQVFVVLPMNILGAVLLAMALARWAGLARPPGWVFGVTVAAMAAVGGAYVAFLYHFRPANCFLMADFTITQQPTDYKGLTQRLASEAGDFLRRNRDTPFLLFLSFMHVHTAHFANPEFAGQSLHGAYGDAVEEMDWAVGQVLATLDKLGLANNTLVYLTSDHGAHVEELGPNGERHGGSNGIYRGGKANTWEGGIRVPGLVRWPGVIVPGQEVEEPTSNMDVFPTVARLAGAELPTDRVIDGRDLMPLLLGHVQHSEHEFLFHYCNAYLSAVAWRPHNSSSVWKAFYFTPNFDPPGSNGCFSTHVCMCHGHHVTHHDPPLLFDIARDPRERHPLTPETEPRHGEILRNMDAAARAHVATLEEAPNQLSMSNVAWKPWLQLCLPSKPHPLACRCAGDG
- measurement.description: In vivo inhibition of oestrone sulphatase activity in rat liver
- measurement.context: 24 hours after single oral dose in propylene glycol, 10 mg/Kg
Would you mind telling me the reported % Inhibition of oestrone sulphatase in vivo of each entry?
Give bare numbers, in %.

The following compounds have reported results that may help.
>  <compound>
NS(=O)(=O)Oc1ccc(-c2coc3cc(O)cc(O)c3c2=O)cc1 [Compound 18, 5,7-Dihydroxy isoflavone-4′-O-sulphamate]

>  <endpoint.value>
62.0

$$$$
>  <compound>
NS(=O)(=O)Oc1ccc(C2CC(=O)c3c(O)cc(O)cc3O2)cc1 (stereo not shown) [Compound 20, 5,7-Dihydroxyflavanone 4′-O-sulphamate]

>  <endpoint.value>
44.2

$$$$
>  <compound>
NS(=O)(=O)Oc1ccc(-c2coc3cc(OS(N)(=O)=O)cc(O)c3c2=O)cc1

>  <endpoint.value>
81.4

$$$$

query: Which value of % Inhibition of oestrone sulphatase in vivo has been reported for NS(=O)(=O)Oc1ccc(-c2coc3cc(OS(N)(=O)=O)ccc3c2=O)cc1 [Compound 19, Isoflavone-4′,7-O,O-bisulphamate] in the records?
result: 71.4
